Please find below IC50 data on UniProt P00533 compiled from the literature.
recorded endpoint: IC50

- smiles notation: "CN(C/C=C/C(=O)N1CC[C@@H](n2nc(-c3ccc(C(=O)Nc4ncc(C5CC5)s4)cc3)c3c(N)ncnc32)C1)C1CC1"
  value reported: "< 1 nM"
- smiles notation: "CN(C/C=C/C(=O)N1CCOc2ccc(-n3c(=O)n(-c4ccc(Oc5cccc(F)c5)cc4)c4c(N)ncnc43)cc21)C1CC1"
  value reported: "100 to 1000 nM"
- smiles notation: "C[C@@H](Nc1ncnc2[nH]c(-c3ccc(NCCCCCC(=O)NO)cc3)cc12)c1ccccc1"
  value reported: "< 100 nM"
- smiles notation: "CCc1cc(Nc2ncc(Br)c(Nc3ccc(-c4ccc(F)cc4F)cc3P(C)(C)=O)n2)c(OC)cc1N1CCC(N2CCN(C)CC2)CC1"
  value reported: "16.7 nM"

###

Please find below IC50 data on Epidermal growth factor receptor (Homo sapiens) compiled from the literature.

- compound: "C=CC(=O)N1CCC[C@@H](Nc2n[nH]c3nccc(Oc4ccc(C(=O)Nc5nc6ccccc6s5)cc4)c23)C1"
  IC50: "< 100 nM"
- compound: "C=CC(=O)Nc1cc(-c2c(-c3ccc(CN4CCOCC4)cc3)[nH]c3nccc(OC)c23)ccc1C"
  IC50: "≤ 100 nM"
- compound: "Cc1nn(CCO)c2c1/C=C/c1n[nH]c3ccc(cc13)-c1cnn(C)c1O[C@@H](C)CN(C(C)C)C2"
  IC50: "0.38 nM"
- compound: "COc1cc(N2CCC(N3CCN(C)CC3)CC2)ccc1Nc1ncc(Cl)c(Nc2ccccc2-c2c(OC)ccc(C=O)c2O)n1"
  IC50: "278 nM"
- compound: "CCOC(=O)c1c(C)[nH]c(/C=C2\\C(=O)Nc3cccc(-c4cccc(F)c4)c32)c1CCCN1CCN(C)CC1"
  IC50: "9330 nM"
- compound: "Cc1ccc(Oc2ccc(Nc3ncnc4sc5c(c34)CCN(C(=O)/C=C/CN3CCOCC34CCC4)C5)cc2C)cn1"
  IC50: "> 10000 nM"
- compound: "CN(C)C/C=C/C(=O)N(C)c1cccc(-n2c(=O)n(-c3ccc(Oc4ccccc4)cc3)c3c(N)ncnc32)c1"
  IC50: "100 to 1000 nM"
- compound: "CC(C)Oc1cc2ncnc(Nc3ccc(OCc4cccc(F)c4)c(Cl)c3)c2c2c1OCCO2"
  IC50: "< 200 nM"
- compound: "CCCc1ccc(/C(=C2/C(=O)Nc3ccc(NC4CCN(CCOC)CC4)cc32)c2ncc[nH]2)cc1"
  IC50: "50 to 500 nM"
- compound: "C=CC(=O)Nc1cc(-c2c(-c3ccc(N4CCN(S(=O)(=O)CC)CC4)cc3)[nH]c3nccc(Cl)c23)ccc1C"
  IC50: "≤ 100 nM"
- compound: "COc1ccc(Cl)cc1C(=O)NCc1ccc(-c2nn(C3CCCC3)c3ncnc(N)c23)cc1"
  IC50: "1000 to 10000 nM"
- compound: "C=CC(=O)N1CCc2c(sc3ncnc(Nc4ccc(Oc5ccc6ncnn6c5)c(C)c4)c23)C1"
  IC50: "1000 to 10000 nM"
- compound: "COc1cc(N2CCC(N3CCN(C)CC3)CC2)ccc1Nc1ncc(C)c(Nc2cccc3c2N(S(C)(=O)=O)CC3)n1"
  IC50: "0.23 nM"
- compound: "CP(C)(=O)c1ccccc1Nc1nc(Nc2ccc(N3CC4(CC(N)C4)C3)c(Cl)c2)ncc1Cl"
  IC50: "37 nM"
- compound: "O=[N+]([O-])c1cc(Nc2ncnc3nc(Nc4ccc(CN5CCOCC5)cc4)sc23)ccc1F"
  IC50: "43.4 nM"
- compound: "Cc1ccc(Oc2ccc(Nc3ncnc4sc5c(c34)CCN(C(=O)/C=C/CNC3CCC(C(=O)N(C)C)CC3)C5)cc2C)cn1 (centres unmarked)"
  IC50: "1000 to 10000 nM"
- compound: "Cc1ccc(Oc2ccc(Nc3ncnc4sc5c(c34)CN(C(=O)/C=C/CN(C)C)C5)cc2C)cn1"
  IC50: "> 10000 nM"
- compound: "COc1cc(Nc2ncc(Br)c(Nc3ccc4nc(C5CC5)ccc4c3P(C)(C)=O)n2)c(C2CCOCC2)cc1N1CCC(N2CCN(C)CC2)CC1"
  IC50: "> 3000 nM"
- compound: "C=CC(=O)Nc1cccc(Oc2nc(Nc3cccc(OC)c3OC)ncc2Cl)c1"
  IC50: "300 to 1000 nM"
- compound: "CN(C)C/C=C/C(=O)N1CCOc2c1ccc1ncnc(Nc3ccc(Oc4cccc(C(F)(F)F)c4)cc3)c21"
  IC50: "≤ 50 nM"
- compound: "COc1cnn(-c2ccc(Nc3nc(Nc4cc(OC)c(N5CCC(N(C)C)CC5)cc4C)ncc3Br)c(P(C)(C)=O)c2)c1"
  IC50: "19.2 nM"
- compound: "CN1CCN(C2CCN(c3ccc(Nc4nc(NC5CC6(COC6)C5)c(-c5cccc6[nH]ccc56)nc4C(N)=O)cc3)CC2)CC1"
  IC50: "1.7 nM"
- compound: "CCN1CCC(Nc2ccc3c(c2)/C(=C(\\c2ccc(F)c(Cl)c2)c2nc(C)c[nH]2)C(=O)N3)CC1"
  IC50: "50 to 500 nM"
- compound: "C=CC(=O)Nc1cc(-c2c(-c3ccc(N(C)CCN(C)C)cc3)[nH]c3ncc(C(=O)OC(C)C)c(C)c23)ccc1C"
  IC50: "≤ 100 nM"
- compound: "C=CC(=O)N[C@@H]1CCn2c(c(-c3cnc4ccccc4c3)c3c(N)ncnc32)C(=C)C1"
  IC50: "68 nM"
- compound: "O=C1Nc2ccc(NC3CCNCC3)cc2/C1=C(\\c1ccccc1)c1nc2ccccc2[nH]1"
  IC50: "500 to 5000 nM"
- compound: "COCCOc1cc2ncnc(Nc3ccc(F)c(Cl)c3)c2c2c1OCCO2"
  IC50: "< 50 nM"
- compound: "CCc1cc(Nc2ncc(Br)c(Nc3ccc(-c4cnn(CC)n4)cc3P(C)(C)=O)n2)c(OC)cc1N1CCC(N2CCN(C)CC2)CC1"
  IC50: "18 nM"
- compound: "Cc1nc(NC(=O)c2ccc(Oc3ccnc4[nH]nc(N[C@@H]5CCCN(C(=O)/C=C/CN(C)C6CC6)C5)c34)cc2)sc1C"
  IC50: "1000 to 10000 nM"
